Tested on: HEK293T cells carrying the ATF4 luciferase reporter
Experiment: ATF4-Luc assay (in vitro model of VWMD)
Assay type: cell-based
Settings: Homo sapiens, HEK-293T, 1 μg/mL tunicamycin, 7 hours, One Glo luminescence
QUANTITY: EC50

- COMPOUND: "O=C(COc1ccc(Cl)c(F)c1)NC12CC(c3nc(COc4ccc(Cl)cc4)no3)(C1)C2 [Compound 110]"
  MEASUREMENT_TARGET: "HEK293T cells carrying the ATF4 luciferase reporter"
  READOUT_VALUE: "50 to 250 nM"
- COMPOUND: "O=C(COc1ccc(Cl)c(F)c1)NC12CC(c3nc(COc4cncc(C(F)(F)F)c4)no3)(C1)C2 [Compound 159]"
  MEASUREMENT_TARGET: "HEK293T cells carrying the ATF4 luciferase reporter"
  READOUT_VALUE: "50 to 250 nM"
- COMPOUND: "O=C(COc1ccc(Cl)c(F)c1)NC12CC(c3nnc(COc4ccc(C5CC5)nc4)o3)(C1)C2 [Compound 150]"
  MEASUREMENT_TARGET: "HEK293T cells carrying the ATF4 luciferase reporter"
  READOUT_VALUE: "1000 to 2000 nM"
- COMPOUND: "N#Cc1ccc(Oc2nnc(C34CC(NC(=O)COc5ccc(Cl)c(F)c5)(C3)C4)o2)cn1 [Compound 119]"
  MEASUREMENT_TARGET: "HEK293T cells carrying the ATF4 luciferase reporter"
  READOUT_VALUE: "250 to 1000 nM"

Exam item: Looking for the measured EC50 of O=C(COc1ccc(F)cc1)NC12CC(c3nc(COc4ccc(Cl)cc4)no3)(C1)C2 [Compound 108] , can you help?
Marked response: 250 to 1000 nM

Exam item: Looking for the measured EC50 of O=C(COc1ccc(Cl)c(F)c1)NC12CC(c3noc(COc4ccc(Cl)cc4)n3)(C1)C2 [Compound 113] , can you help?
Marked response: < 50 nM

Exam item: Looking for the measured EC50 of O=C(COc1ccc(Cl)c(F)c1)NC12CC(c3nc(COc4cnc(C(F)(F)F)c(Cl)c4)no3)(C1)C2 [Compound 162] , can you help?
Marked response: 50 to 250 nM
